assay_name: Quantitative High-Throughput drug screen in 47 multiple myeloma cell lines against the NCATS MIPE library collection: JIM1_ECACC cell viability assay (AID 1918964; further: potency means the concentration at half of the fitted maximal effect)
measurement_context: JIM1 myeloma viability, CellTiter-Glo ATP luminescence, 48 h; series mostly up to 45.8 µM
Records with an inconclusive call do not appear. Calls of active or inactive are those of the source. The call rests on the fitted dose curve; in most records, active means well fitted cell-killing curve with a large enough effect; inconclusive means small, poorly fitted or top-dose-only effect, or effect the other way; inactive means no such curve, though single readings can be large or run the other way.
reported_endpoint: Potency

Please review the entries below; each comes with its answer.
- compound: "N[C@@H](C(=O)N[C@@H]1C(=O)N2C(C(=O)O)=C(Cl)CS[C@H]12)c1ccccc1"
  reported_endpoint: "Potency"
  readout_value: "inactive"
- compound: "CCN[C@H]1C[C@H](C)S(=O)(=O)c2sc(S(N)(=O)=O)cc21"
  reported_endpoint: "Potency"
  readout_value: "inactive"
- compound: "COc1ccc2cc3[n+](cc2c1OC)CCc1cc2c(cc1-3)OCO2"
  reported_endpoint: "Potency"
  readout_value: "16.6 µM (active)"
- compound: "CCC(C)(C)c1ccc(CC(C)CN2C[C@@H](C)O[C@@H](C)C2)cc1 (stereo not given in full)"
  reported_endpoint: "Potency"
  readout_value: "inactive"

Proceeding to the next compound to report its Potency.
So, "NC(=O)c1cccnc1" ? Its Potency was inactive

###

assay_name: qHTS of pediatric cancer cell lines to identify multiple opportunities for drug repurposing: Primary screen for A673 cells (AID 1347092); further: nearly all actives have a fitted effect of over 45% in size
measurement_context: A673 Ewing sarcoma viability, CellTiter-Glo ATP luminescence, 48 h; series mostly up to 46 µM
Results filed as inconclusive are left out. Active and inactive are the calls of the source. Calls come from the whole dose curve; as a rule, active = well fitted cell-killing curve with a large enough effect; inconclusive = small, poorly fitted or top-dose-only effect; inactive = no such curve, though single readings can be large or run the other way.
Hello, when you answer, please use one of the following outcomes: Yes (active), No (inactive)

Would you please look over these solved cases?
- compound: "CCOC(=O)c1ccc(C#Cc2ccc3c(c2)C(C)(C)CCS3)nc1"
  assigned_label: "Yes"
- compound: "S=P(N1CC1)(N1CC1)N1CC1"
  assigned_label: "Yes"
- compound: "COc1c(N2CCNC(C)C2)c(F)cc2c(=O)c(C(=O)O)cn(C3CC3)c12 (stereo not drawn)"
  assigned_label: "No"

(Q) Hi, do you know how "NC(=O)N1c2ccccc2CC(=O)c2ccccc21" came out in this test?
(A) No

(Q) Hi, do you know how "CN(Cc1cc(Br)cc(Br)c1N)C1CCCCC1" came out in this test?
(A) No

(Q) Hi, do you know how CC(C)C1CCC(C(=O)N[C@H](Cc2ccccc2)C(=O)O)CC1 (stereo partly drawn) came out in this test?
(A) No

(Q) Hi, do you know how "O=S(=O)(O)CCS" came out in this test?
(A) No

(Q) Hi, do you know how "CCCOc1ccc(C(=O)OCCN(CC)CC)cc1N" came out in this test?
(A) No

(Q) Hi, do you know how "Cc1nnc(C(=O)NC(C)(C)c2nc(C(=O)NCc3ccc(F)cc3)c(O)c(=O)n2C)o1" came out in this test?
(A) No

(Q) Hi, do you know how "CN(C)CCc1c[nH]c2ccc(C[C@H]3COC(=O)N3)cc12" came out in this test?
(A) No

(Q) Hi, do you know how "CC(=O)[C@H]1CC[C@H]2[C@@H]3CCC4=CC(=O)CC[C@]4(C)[C@H]3CC[C@]12C" came out in this test?
(A) Yes

(Q) Hi, do you know how "O=C(N[C@H](CO)[C@H](O)c1ccc([N+](=O)[O-])cc1)C(Cl)Cl" came out in this test?
(A) No

###

assay_name: qHTS profiling for inhibitors of Plasmodium falciparum proliferation (AID 504749);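 further: 0% = DMSO vehicle and full inhibition = artemisinin control; nearly all actives have a fitted effect of over 60% in size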
measurement_context: P. falciparum in erythrocytes, SYBR Green DNA, 72 h; at 28.7 µM (top of the series); parasite line B
Inconclusive results are not listed.
activity, negative = inhibition: recorded values
Numbers only here, please. The scale is %.

Please review the entries below; each comes with its answer.
- compound: "COc1ncnc(NS(=O)(=O)c2ccc(N)cc2)c1OC"
  readout_value: 11.3
- compound: "O=NN(CCCl)C(=O)NC1CCCCC1"
  readout_value: 5.97

So, "Cn1nnc2c(C(N)=O)ncn2c1=O" ? Its activity, negative = inhibition was 3.99

So, "N[C@@H](C(=O)N[C@@H]1C(=O)N2C(C(=O)O)=C(Cl)CS[C@H]12)c1ccccc1" ? Its activity, negative = inhibition was -2.02

So, "CN1CCN(c2c(F)cc3c(=O)c(C(=O)O)cn(CCF)c3c2F)CC1" ? Its activity, negative = inhibition was 7.79

So, "CCN(C)C(=O)Oc1cccc([C@H](C)N(C)C)c1" ? Its activity, negative = inhibition was 1.69

So, "NC(=O)c1cccnc1" ? Its activity, negative = inhibition was 2.45

###

assay_name: qHTS of pediatric cancer cell lines to identify multiple opportunities for drug repurposing: Confirmatory screen for A673 cells (AID 1347110);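 further: cells exposed to compound for 48 h before the viability read; nearly all actives have a fitted effect of over 65% in size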
measurement_context: A673 Ewing sarcoma cell viability; series mostly up to 45.9 µM
Inconclusive results are not listed. Active and inactive are the calls of the source. The call rests on the fitted dose curve; in most records, active means well fitted cell-killing curve with a large enough effect; inconclusive means small, poorly fitted or top-dose-only effect; inactive means flat fitted curve, though single readings scatter.
Hello, when you answer, please use one of the following outcomes: Yes (active), No (inactive)

(Q) Hi, do you know how "CS(=O)(=O)c1ccc([C@@H](O)[C@@H](CO)NC(=O)C(Cl)Cl)cc1" came out in this test?
(A) No

(Q) Hi, do you know how "Oc1c(Cl)cc(Cl)c2cccnc12" came out in this test?
(A) Yes

(Q) Hi, do you know how COC(=O)Nc1nc2ccc(S(=O)c3ccccc3)cc2[nH]1 (configuration not stated) came out in this test?
(A) Yes

(Q) Hi, do you know how "CNNCc1ccc(C(=O)NC(C)C)cc1" came out in this test?
(A) Yes

(Q) Hi, do you know how "Nc1[nH]c(=O)ncc1F" came out in this test?
(A) No

(Q) Hi, do you know how CN1CCCC(n2nc(Cc3ccc(Cl)cc3)c3ccccc3c2=O)CC1 (configuration not stated) came out in this test?
(A) Yes

(Q) Hi, do you know how Nc1nc(N)c2nc(CNc3ccc(C(=O)NC(CCC(=O)O)C(=O)O)cc3)cnc2n1 (configuration not stated) came out in this test?
(A) Yes

###

target_of_assay: Parathyroid hormone/parathyroid hormone-related peptide receptor (Homo sapiens)
assay_name: qHTS for PTHR1 Agonists: Optimization Screen against the NCGC LOPAC library (AID 1347079);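 further: GloSensor cAMP luminescence in HEK-293 GP2 cells expressing human PTHR1 with IBMX; 0% is about no effect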
measurement_context: HEK293 GP2 PTHR1 GloSensor cAMP luminescence, 1 h; series mostly up to 57.1 µM
The source made the active and inactive calls. Calls follow the shape of the dose curve; as a rule, active = well fitted activation curve with a large enough effect; inconclusive = small, poorly fitted or top-dose-only effect; inactive = no such curve, though single readings can be large or run the other way.
reported_endpoint: outcome

- molecule: "CCN(CC)CC#CCOC(=O)C(O)(c1ccccc1)C1CCCCC1 (stereo unspecified)"
  outcome: "inactive"
- molecule: "CCN(CC)CCn1c(=O)c(Cc2ccc(OC)cc2)nc2ccccc21"
  outcome: "inactive"
- molecule: "COc1cc2nc(N3CCCN(C)CC3)nc(NC3CCN(Cc4ccccc4)CC3)c2cc1OC"
  outcome: "inactive"
- molecule: "OCc1ccc(-c2nn(Cc3ccccc3)c3ccccc23)o1"
  outcome: "inactive"
- molecule: "CCCCS(=N)(=O)CCC(N)C(=O)O (stereo unspecified)"
  outcome: "inactive"

Proceeding to the next molecule to report its outcome.
So, CC(C)NCC(O)c1ccc(NS(C)(=O)=O)cc1 (stereo unspecified) ? Its outcome was inactive

###

Tested on: NIH3T3
assay_name: Cytotoxic Profiling of Annotated Libraries Using Quantitative High-Throughput Screening (AID 1296008); further: on the % scale 0 is the no-effect control and ±100 the full control effect; nearly all actives have a fitted effect of over 60% in size
measurement_context: Five cell lines viability, CellTiter-Glo ATP luminescence, 48-72 h; hits give low values
Inconclusive results are not listed. Calls of active or inactive are those of the source. Calls follow the shape of the dose curve; as a rule, active = well fitted inhibition curve with a large enough effect; inconclusive = small, poorly fitted or top-dose-only effect; inactive = flat fitted curve, though single readings scatter.
reported_endpoint: max response

Please review the entries below; each comes with its answer.
- compound: "CCCCS(=N)(=O)CCC(N)C(=O)O (stereo unspecified)"
  max response: "-0.0148% (inactive)"
- compound: "CCn1cc(C(=O)O)c(=O)c2cc(F)c(N3CCN(C)CC3)cc21"
  max response: "-2.14% (inactive)"
- compound: "CC(=O)[C@H]1CC[C@H]2[C@@H]3CC=C4C[C@@H](O)CC[C@]4(C)[C@H]3CC[C@]12C"
  max response: "0.775% (inactive)"
- compound: "CC(C)OC(=O)C(C(=O)OC(C)C)=C1SC=CS1"
  max response: "0.152% (inactive)"

So, "NC1(c2ccc(-c3nc4ccn5c(=O)[nH]nc5c4cc3-c3ccccc3)cc2)CCC1" ? Its max response was -6.67% (inactive)

So, "C#CCN[C@@H]1CCc2ccccc21" ? Its max response was 1.77% (inactive)

###

assay_name: qHTS of pediatric cancer cell lines to identify multiple opportunities for drug repurposing: Primary screen for TC32 cells (AID 1347089); further: on the % scale 0 is the no-effect control and ±100 the full control effect; nearly all actives have a fitted effect of over 60% in size
measurement_context: TC32 Ewing sarcoma viability, CellTiter-Glo luminescence, 48 h; series mostly up to 45.8 µM
Inconclusive results are not listed. The source made the active and inactive calls. Calls follow the shape of the dose curve; as a rule, active = well fitted cell-killing curve with a large enough effect; inconclusive = small, poorly fitted or top-dose-only effect; inactive = flat fitted curve, though single readings scatter.
reported_endpoint: outcome

- compound: "COc1ccc(-c2ccc3cc(C(=O)O)ccc3c2)cc1C12CC3CC(CC(C3)C1)C2"
  outcome: "inactive"
- compound: "NS(=O)(=O)c1cc2c(cc1Cl)NC(C(Cl)Cl)NS2(=O)=O (stereo unspecified)"
  outcome: "inactive"
- compound: "CN(C)CCc1c[nH]c2ccc(C[C@H]3COC(=O)N3)cc12"
  outcome: "inactive"
- compound: "CCCCS(=N)(=O)CCC(N)C(=O)O (stereo unspecified)"
  outcome: "inactive"
- compound: "Nc1nc(N)nc(-c2cc(Cl)ccc2Cl)n1"
  outcome: "inactive"

So, "O=NN(CCCl)C(=O)NC1CCCCC1" ? Its outcome was inactive

So, "Cc1ccnc2c1NC(=O)c1cccnc1N2C1CC1" ? Its outcome was inactive

So, "CCC(=O)O[C@]1(C(=O)CCl)[C@@H](C)C[C@H]2[C@@H]3CCC4=CC(=O)C=C[C@]4(C)[C@@]3(F)[C@@H](O)C[C@@]21C" ? Its outcome was inactive

So, "CCN[C@H]1C[C@H](C)S(=O)(=O)c2sc(S(N)(=O)=O)cc21" ? Its outcome was inactive

So, "Nc1[nH]c(=O)ncc1F" ? Its outcome was inactive

So, "CC(=O)Oc1ccccc1C(=O)Nc1ncc([N+](=O)[O-])s1" ? Its outcome was inactive
